- experimental system: Autotaxin (Homo sapiens, UniProt Q13822)
Reported IC50 is given for each of the following compounds.
property: IC50 (nM)

1. CCn1cc(/C(=N/Nc2nc(-c3ccc(F)cc3)c(C#N)s2)C(F)(F)F)c2cc(-c3nc(CN4CCC(O)CC4)cs3)ccc21
2050
2. CCn1cc(/C(=N/Nc2nc(-c3ccc(Cl)cc3)c(C#N)s2)C(F)(F)F)c2cc(-c3nc(CN4CCC(C)CC4)cs3)ccc21
4210
3. CCn1cc(/C(=N/Nc2nc3ccccc3s2)C(F)(F)F)c2cc(-c3nc(CN4CCC(O)CC4)cs3)ccc21
2.1

###

- System: A549
- assay info: Antiproliferative activity against human A549 cells measured after 72 hrs by MTT assay
- Format: functional, cell-based
- conditions: A549, 72 h
pIC50: −log10 of the molar value.
property: pIC50

1) CCn1cc(/C(=N/Nc2nc3ccccc3s2)C(F)(F)F)c2cc(-c3nc(CN4CCCC4)cs3)ccc21
5.10
2) O=C(CCN1CCN(C(=O)OCc2cc(Cl)cc(Cl)c2)CC1)c1ccc2[nH]c(=O)oc2c1
5.09
3) Cc1[nH]c2cc(F)c(N3CCC(C(=O)N4CCCC4)CC3)cc2c1/C(=N/Nc1nc(-c2ccc(F)cc2)c(C#N)s1)C(F)(F)F
5.04
